Cited source for all entries: the supplement of paper PMC8728848

System tested: Neu5Ac(a2-6)Gal(b1-4)GlcNAc(b1-2)[Neu5Ac(a2-6)Gal(b1-4)GlcNAc(b1-4)]Man(a1-3)[GlcNAc(b1-4)][Neu5Ac(a2-6)Gal(b1-4)GlcNAc(b1-4)Man(a1-6)]Man(b1-4)GlcNAc(b1-4)GlcNAc
Test name: glycan array binding signal (z-score within array); higher = stronger binding
Experimental setup: glycan notation: IUPAC condensed, linker removed
The full list was thinned out, with the strongest signals kept by preference.
Threshold rule: glycan array binding signal (z-score) greater than or equal to -0.2 is true; below that, false.

## Input Kindly determine if glycan array binding signal (z-score) recorded for SP8524D-bot-399-27-399 (Bacteroides ovatus) (protein) DAKYDTLDTHAYIEEALSSTSQKVTVQATGESFTTLNVHLSNLSSTDNHYKLVTDQSVLDTYNHINGTGYIMLPKDYYTLPETITVKAGQYAADALSIALKAFSQEMMKSGESYALPVKLVLQDGSISPMENTGTFVILAESIIEFSAPMFVGAPSLKANKFTESPETYSQYTIEVRFQVANTADRDRAVFKNGGDDANFILLRFEDPQSDNENYKAHSLVQIVGRNRLYLNPSNSFKPNEWQHLALVCDGSNYRLYINGVDSGVLSIPTGATTFSDVNWFCLGDDSYSRWGNCKILMSEARIWSVVRSASQIQNNMTQVSPKSVGLEAYWRFNEGQGNVFEDATGKGHTLTTSATPTWIDGILSTDKSTEWK is above or exactly -0.2.
## Output true

## Input # check: glycan array binding signal (z-score) of Gal 10 (Homo sapiens), Q05315 (protein) MSLLPVPYTEAASLSTGSTVTIKGRPLVCFLNEPYLQVDFHTEMKEESDIVFHFQVCFGRRVVMNSREYGAWKQQVESKNMPFQDGQEFELSISVLPDKYQVMVNGQSSYTFDHRIKPEAVKMVQVWRDISLTKFNVSYLKR is greater than or equal to -0.2
## Output true

## Input glycan array binding signal (z-score) >= -0.2 for YASPKCFRYPNGVLACT [Odorranalectin (Odorrana grahami), B3TFE9_RANGR] ?
## Output true

## Input Is glycan array binding signal (z-score) at least -0.2? Consider DC-ASGPR-short (Homo sapiens) (protein) MTRTYENFQYLENKVKVQGFKNGPLPLQSLLQRLRSGPCHLLLSLGLGLLLLVIICVVGFQNSKFQRDLVTLRTDFSNFTSNTVAEIQALTSQGSSLEETIASLKAEVEGFKQERQAVHSEMLLRVQQLVQDLKKLTCQVATLNNNASTEGTCCPVNWVEHQDSCYWFSHSGMSWAEAEKYCQLKNAHLVVINSREEQNFVQKYLGSAYTWMGLSDPEGAWKWVDGTDYATGFQNWKPGQPDDWQGHGLGGGEDCAHFHPDGRWNDDVCQRPYHWVCEAGLGQTSQESH
## Output false

## Input Quick check, glycan array binding signal (z-score) >= -0.2? Cohesin-mDCIR (Macaca mulatta) (protein) GLDDLDAVRIKVDTVNAKPGDTVRIPVRFSGIPSKGIANCDFVYSYDPNVLEIIEIEPGDIIVDPNPDKSFDTAVYPDRKIIVFLFAEDSGTGAYAITKDGVFATIVAKVKEGAPNGLSVIKFVEVGGFANNDLVEQKTQFFDGGVNVGDTTEPATPTTPVTTPTTTDDLDAASFQKYSQLLEKMTTKDLVHTTLECVKKNMTTEETAWSCCPKNWKPFSSNCYFISTESASWQKSEKDCARMEAHLLVINTREEQDFIFQNLQEESAYFVGLSDPEGQRHWQWVDRTPYNESSTFWHPHEPSDPDERCVVLNFRKTPKRWGWNDVHCIVHQRSVCEMMKIHLHHHHHH
## Output false

## Input Say whether DrGal3 (Danio rerio) (protein) MDLSDALDAPPQQNNQQAGGPVWPGQPANPVWPGQPANPTWPGQPNQPAWPGQPNQQWPGQPGQPTAPGWPGPAPQTGPYGAPGQAPQVLTVPLDFPLQNGAYNKMLITINGEVKPNAKQFTVNLRRGNDIAFHINPRFSEGGKPVIVRNSMIGNNWGREERELPSFPFVPGKPFEMKILITDTEYKVAVNKSHLLEFKHRVFELNQITGLSIYNDVTLSTVNVETLQ shows glycan array binding signal (z-score) of -0.2 or more.
## Output false
